# Target: TDO (A172 cells) (Homo sapiens)
# Construct: This assay utilised cancer cells which expressed either TDO or IDO; host or cells: A172 human glioblastoma cells
# Sequence (P48775 whole entry): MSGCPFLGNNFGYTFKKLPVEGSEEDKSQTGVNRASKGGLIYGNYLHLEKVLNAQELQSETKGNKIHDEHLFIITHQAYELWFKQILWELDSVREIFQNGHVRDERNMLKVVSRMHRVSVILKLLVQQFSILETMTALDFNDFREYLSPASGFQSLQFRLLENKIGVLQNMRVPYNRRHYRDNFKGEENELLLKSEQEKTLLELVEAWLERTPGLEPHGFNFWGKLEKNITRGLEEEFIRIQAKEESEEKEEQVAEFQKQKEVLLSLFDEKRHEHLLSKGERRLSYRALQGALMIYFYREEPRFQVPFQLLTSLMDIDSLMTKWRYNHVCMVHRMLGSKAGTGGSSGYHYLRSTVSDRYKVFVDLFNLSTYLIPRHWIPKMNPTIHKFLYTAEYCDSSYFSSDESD
# Test protocol: TDO cell-based assay (A172), kynurenine production
# Condition label: A172 human glioblastoma cells, 500 μM L-Trp, 48 h, kynurenine by absorbance at 490 nm
# Excerpt: Two different types of assay were employed: 1. A TDO and IDO biochemical coupled assay which utilised recombinantly produced and purified TDO and IDO enzymes in combination with the enzyme formamidase. This coupled enzyme system allowed conversion of N-formylkynurenine produced by TDO or IDO activity to kynurenine which was then quantified by fluorescence following addition of Erhlich's Reagent. 2. […]
Observation type: TDO cellular assay (A172) pIC50

compound="COc1cccc(-n2cc(C(C)NC(=O)c3cc4cc(Cl)ccc4[nH]3)cn2)c1 (stereo not drawn)" test_value="+ (+ = pIC50 4.50-<5.00)"
compound="Cc1ccc2cc(C(=O)NC(C)c3ccccc3)[nH]c2c1 (stereo not drawn)" test_value="+ (+ = pIC50 4.50-<5.00)"
compound=Cc1nc(C2(NC(=O)c3cc4cc(Cl)ccc4[nH]3)CC2)co1 test_value="− (− = pIC50 <4.50)"
compound="Cc1ccnc(C(NC(=O)c2cc3cc(Cl)ccc3[nH]2)C2CC2)c1 (stereo not drawn)" test_value="− (− = pIC50 <4.50)"
compound="CC(NC(=O)c1cc2cc(F)ccc2[nH]1)c1cccc(F)c1 (stereo not drawn)" test_value="+ (+ = pIC50 4.50-<5.00)"

Kindly consider the entry below.
# TDO cellular assay (A172) pIC50 lookup, item O=C(NC1(c2ccccc2)CC1)C1Cc2cc(Cl)ccc2N1 (stereo not drawn)
+ (+ = pIC50 4.50-<5.00)
